Molecular target: HLA-A*02:01 (Homo sapiens, UniProt P04439, D140Y/D185E/D98H/E176V/E277Q/G131W/G231S/I119V/I121R/I166T/I218V/L300P/L318F/N151K/N90K/P208A/P217A/Q86G/Q94H/R138H/R169H/T345S)
Experiment: MHC binding assay (UV-ligand exchange, beta2m ELISA)
Details: binding to HLA-A*02:01, β2m ELISA
experimental endpoint: Peptide exchange (MHC class I binding score, peptide exchange yield)

Examples with their reported Peptide exchange (MHC class I binding score, peptide exchange yield) follow.
substance="94 (YLDEVAFML; listed as Homo sapiens) [compound 94]" test_result="+++ (≧50 = +++)"
substance="61 (ALYPKEITL; listed as Homo sapiens) [compound 61]" test_result="+++ (≧50 = +++)"
substance="86 (SLFSNIESV; listed as Homo sapiens) [compound 86]" test_result="+++ (≧50 = +++)"
substance="162 (GLLGNLLTSL; listed as Homo sapiens) [compound 162]" test_result="+++ (≧50 = +++)"
substance="246 (ALAGIVTNV; listed as Homo sapiens) [compound 246]" test_result="+++ (≧50 = +++)"

Quick check: Peptide exchange (MHC class I binding score, peptide exchange yield) of 143 (MLWESIMRV; listed as Homo sapiens) [compound 143] ? +++ (≧50 = +++)

Quick check: Peptide exchange (MHC class I binding score, peptide exchange yield) of 77 (ALYGNVQQV; listed as Homo sapiens) [compound 77] ? +++ (≧50 = +++)

====

Molecular target: HLA-A*02:01 (Homo sapiens, UniProt P04439, D140Y/D185E/D98H/E176V/E277Q/G131W/G231S/I119V/I121R/I166T/I218V/L300P/L318F/N151K/N90K/P208A/P217A/Q86G/Q94H/R138H/R169H/T345S)
Test: MHC binding assay (UV-ligand exchange, beta2m ELISA)
Details: binding to HLA-A*02:01, β2m ELISA
experimental endpoint: Peptide exchange (MHC class I binding score, peptide exchange yield)

substance="114 (LLFPSDVQTL; listed as Homo sapiens) [compound 114]" test_result="++ (≧20% = ++)"
substance="263 (SIIEYLPTL; listed as Homo sapiens) [compound 263]" test_result="+++ (≧50 = +++)"
substance="126 (QLREAFEQL; listed as Homo sapiens) [compound 126]" test_result="+++ (≧50 = +++)"
substance="236 (KMSELQTYV; listed as Homo sapiens) [compound 236]" test_result="+++ (≧50 = +++)"
substance="260 (ALNESLVEC; listed as Homo sapiens) [compound 260]" test_result="+++ (≧50 = +++)"
substance="76 (FTAEFLEKV; listed as Homo sapiens) [compound 76]" test_result="+++ (≧50 = +++)"
substance="20 (ALVEKGEFAL; listed as Homo sapiens) [compound 20]" test_result="++ (≧20% = ++)"
substance="50 (ILLSVLHQL; listed as Homo sapiens) [compound 50]" test_result="+++ (≧50 = +++)"

Quick check: Peptide exchange (MHC class I binding score, peptide exchange yield) of 249 (YLYQILQGI; listed as Homo sapiens) [compound 249] ? +++ (≧50 = +++)

Quick check: Peptide exchange (MHC class I binding score, peptide exchange yield) of 142 (LLDAAHASI; listed as Homo sapiens) [compound 142] ? ++ (≧20% = ++)

Quick check: Peptide exchange (MHC class I binding score, peptide exchange yield) of 252 (SLMEKNQSL; listed as Homo sapiens) [compound 252] ? ++ (≧20% = ++)

====

Target: HLA-A*02:01 (Homo sapiens, UniProt P04439, D140Y/D185E/D98H/E176V/E277Q/G131W/G231S/I119V/I121R/I166T/I218V/L300P/L318F/N151K/N90K/P208A/P217A/Q86G/Q94H/R138H/R169H/T345S)
Assay: MHC binding assay (UV-ligand exchange, beta2m ELISA)
Conditions: binding to HLA-A*02:01, β2m ELISA
experimental endpoint: Peptide exchange (MHC class I binding score, peptide exchange yield)

Examples with their reported Peptide exchange (MHC class I binding score, peptide exchange yield) follow.
substance="85 (KLLDKPEQFL; listed as Homo sapiens) [compound 85]" test_result="++ (≧20% = ++)"
substance="29 (KMISAIPTL; listed as Homo sapiens) [compound 29]" test_result="++ (≧20% = ++)"
substance="204 (SEWGSPHAAVP; listed as Homo sapiens) [compound 204]" test_result="+++ (≧50 = +++)"
substance="97 (KLFEKSTGL; listed as Homo sapiens) [compound 97]" test_result="+++ (≧50 = +++)"
substance="3 (RVIDDSLVVGV; listed as Homo sapiens) [compound 3]" test_result="+++ (≧50 = +++)"
substance="63 (KLLPMVIQL; listed as Homo sapiens) [compound 63]" test_result="+++ (≧50 = +++)"
substance="175 (SLLDLVQSL; listed as Homo sapiens) [compound 175]" test_result="+++ (≧50 = +++)"
substance="113 (FLFLKEVKV; listed as Homo sapiens) [compound 113]" test_result="++ (≧20% = ++)"

Quick check: Peptide exchange (MHC class I binding score, peptide exchange yield) of 74 (GLAFLPASV; listed as Homo sapiens) [compound 74] ? ++ (≧20% = ++)

Quick check: Peptide exchange (MHC class I binding score, peptide exchange yield) of 244 (NVAEIVIHI; listed as Homo sapiens) [compound 244] ? +++ (≧50 = +++)

Quick check: Peptide exchange (MHC class I binding score, peptide exchange yield) of 122 (SIIDTELKV; listed as Homo sapiens) [compound 122] ? +++ (≧50 = +++)

====

Biological target: HLA-A*02:01 (Homo sapiens, UniProt P04439, D140Y/D185E/D98H/E176V/E277Q/G131W/G231S/I119V/I121R/I166T/I218V/L300P/L318F/N151K/N90K/P208A/P217A/Q86G/Q94H/R138H/R169H/T345S)
Assay: MHC binding assay (UV-ligand exchange, beta2m ELISA)
Details: binding to HLA-A*02:01, β2m ELISA
experimental endpoint: Peptide exchange (MHC class I binding score, peptide exchange yield)

Examples with their reported Peptide exchange (MHC class I binding score, peptide exchange yield) follow.
substance="193 (ALFHMNILL; listed as Homo sapiens) [compound 193]" test_result="+++ (≧50 = +++)"
substance="238 (HLQEKLQSL; listed as Homo sapiens) [compound 238]" test_result="++ (≧20% = ++)"
substance="228 (SLLELDGINLRL; listed as Homo sapiens) [compound 228]" test_result="+++ (≧50 = +++)"
substance="102 (GLYPVTLVGV; listed as Homo sapiens) [compound 102]" test_result="+++ (≧50 = +++)"
substance="24 (KVWSDVTPL; listed as Homo sapiens) [compound 24]" test_result="+++ (≧50 = +++)"
substance="262 (LLLEAVWHL; listed as Homo sapiens) [compound 262]" test_result="+++ (≧50 = +++)"
substance="87 (KLLSLLEEA; listed as Homo sapiens) [compound 87]" test_result="+++ (≧50 = +++)"
substance="212 (MTLSEIHAV; listed as Homo sapiens) [compound 212]" test_result="++ (≧20% = ++)"
substance="222 (LLTGVFAQL; listed as Homo sapiens) [compound 222]" test_result="++ (≧20% = ++)"
substance="286 (FLTEMVHFI; listed as Homo sapiens) [compound 286]" test_result="+++ (≧50 = +++)"

Quick check: Peptide exchange (MHC class I binding score, peptide exchange yield) of 36 (TVLQELINV; listed as Homo sapiens) [compound 36] ? +++ (≧50 = +++)

====

Molecular target: HLA-A*02:01 (Homo sapiens, UniProt P04439, D140Y/D185E/D98H/E176V/E277Q/G131W/G231S/I119V/I121R/I166T/I218V/L300P/L318F/N151K/N90K/P208A/P217A/Q86G/Q94H/R138H/R169H/T345S)
Test: MHC binding assay (UV-ligand exchange, beta2m ELISA)
Settings: binding to HLA-A*02:01, β2m ELISA
experimental endpoint: Peptide exchange (MHC class I binding score, peptide exchange yield)

Examples with their reported Peptide exchange (MHC class I binding score, peptide exchange yield) follow.
substance="275 (AVPPPPSSV; listed as Homo sapiens) [compound 275]" test_result="++ (≧20% = ++)"
substance="250 (LMQDSRLYL; listed as Homo sapiens) [compound 250]" test_result="+++ (≧50 = +++)"
substance="220 (ALSELERVL; listed as Homo sapiens) [compound 220]" test_result="+++ (≧50 = +++)"
substance="129 (KMASKVTQV; listed as Homo sapiens) [compound 129]" test_result="++ (≧20% = ++)"

Quick check: Peptide exchange (MHC class I binding score, peptide exchange yield) of 132 (ALLNNVIEV; listed as Homo sapiens) [compound 132] ? +++ (≧50 = +++)

Quick check: Peptide exchange (MHC class I binding score, peptide exchange yield) of 256 (FLNDIFERI; listed as Homo sapiens) [compound 256] ? +++ (≧50 = +++)

Quick check: Peptide exchange (MHC class I binding score, peptide exchange yield) of 108 (FIANLPPELKA; listed as Homo sapiens) [compound 108] ? +++ (≧50 = +++)

Quick check: Peptide exchange (MHC class I binding score, peptide exchange yield) of 273 (SLNKQIETV; listed as Homo sapiens) [compound 273] ? ++ (≧20% = ++)

Quick check: Peptide exchange (MHC class I binding score, peptide exchange yield) of 103 (YLADTVQKL; listed as Homo sapiens) [compound 103] ? ++ (≧20% = ++)

Quick check: Peptide exchange (MHC class I binding score, peptide exchange yield) of 188 (VLGEEQEGV; listed as Homo sapiens) [compound 188] ? ++ (≧20% = ++)
